Form field: IC50 (one value per entry).
biological target: STAT5a (Homo sapiens); construct: endogenous in cells; host or cells: K-562 and MCF-7 cells (nuclear extracts); test: TransAM STAT5a activation assay on nuclear extracts of treated cells; type: cell-based; conditions: K562 cells, 24 h, read-out: Inhibition IC50 (µM) STAT5a
Sequence (P42229 whole entry): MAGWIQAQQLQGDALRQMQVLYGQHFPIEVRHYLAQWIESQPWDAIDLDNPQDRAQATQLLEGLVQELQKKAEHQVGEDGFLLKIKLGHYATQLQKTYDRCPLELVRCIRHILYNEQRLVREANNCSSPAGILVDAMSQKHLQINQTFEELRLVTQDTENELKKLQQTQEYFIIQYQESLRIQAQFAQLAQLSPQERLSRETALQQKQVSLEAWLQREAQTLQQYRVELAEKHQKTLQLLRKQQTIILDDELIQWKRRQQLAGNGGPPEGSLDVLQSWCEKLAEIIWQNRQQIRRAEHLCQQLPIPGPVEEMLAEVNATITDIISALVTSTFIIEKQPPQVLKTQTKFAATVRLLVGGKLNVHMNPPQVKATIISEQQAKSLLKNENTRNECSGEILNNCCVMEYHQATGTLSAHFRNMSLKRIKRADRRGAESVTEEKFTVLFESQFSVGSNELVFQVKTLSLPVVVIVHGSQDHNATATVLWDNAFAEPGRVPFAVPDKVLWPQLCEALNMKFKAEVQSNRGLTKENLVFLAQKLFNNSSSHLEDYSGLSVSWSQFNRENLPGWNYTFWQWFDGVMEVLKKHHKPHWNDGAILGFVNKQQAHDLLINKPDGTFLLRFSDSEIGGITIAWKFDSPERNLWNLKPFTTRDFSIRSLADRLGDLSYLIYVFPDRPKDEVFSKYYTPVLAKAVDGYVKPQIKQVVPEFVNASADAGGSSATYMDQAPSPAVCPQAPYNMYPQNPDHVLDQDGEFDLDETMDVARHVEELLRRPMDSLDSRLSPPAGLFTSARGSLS
Response body: numeric value in µM, unit text excluded.

| compound | value.kind | unit.tag | recorded.result |
| --- | --- | --- | --- |
| COc1ccc(-c2cc(-c3ccc([N+](=O)[O-])cc3)nc(SCC(=O)Nc3ccc(C(=O)/C=C/c4cc(OC)c(OC)c(OC)c4)cc3)n2)cc1 | IC50 | µM | 77.7 |
| COc1ccc(/C=C/C(=O)c2ccc(NC(=O)CSc3nc(-c4ccc(Cl)cc4)cc(-c4ccc([N+](=O)[O-])cc4)n3)cc2)cc1OC | IC50 | µM | 50.7 |
| C1=C/COCc2cc(ccc2OCCN2CCCC2)Nc2nccc(n2)-c2cccc(c2)COC/1 [Pacritinib, reference compound] | IC50 | µM | 69.8 |

Here is another compound to look at.
Supply recorded IC50 for COc1ccc(/C=C/C(=O)c2ccc(NC(=O)CSc3nc(-c4ccc(OC)cc4)cc(-c4ccc([N+](=O)[O-])cc4)n3)cc2)cc1 here.
116

---

Form field: melting point (one value per entry).

| compound.string | recorded.result |
| --- | --- |
| COc1ccc(-c2cc(-c3ccc([N+](=O)[O-])cc3)nc(SCC(=O)Nc3ccc(C(=O)/C=C/c4ccc(OC)c(OC)c4)cc3)n2)cc1 | 225 to 227 °C |
| COc1ccc(/C=C/C(=O)c2ccc(NC(=O)CSc3nc(-c4ccc(Cl)cc4)cc(-c4ccc(OCCCl)cc4)n3)cc2)cc1 | 136 to 138 °C |
| COc1ccc(-c2cc(-c3ccc(OCCCl)cc3)nc(SCC(=O)Nc3ccc(C(=O)/C=C/c4cc(OC)c(OC)c(OC)c4)cc3)n2)cc1 | 116 to 118 °C |
| COc1ccc(-c2cc(-c3ccc(OCCCl)cc3)nc(SCC(=O)Nc3ccc(C(=O)/C=C/c4ccc(OC)c(OC)c4)cc3)n2)cc1 | 135 to 137 °C |

Here is another compound to look at.
Supply recorded melting point for COc1ccc(-c2cc(-c3ccc(C)cc3)nc(SCC(=O)Nc3ccc(C(=O)/C=C/c4ccc(OC)c(OC)c4)cc3)n2)cc1 here.
165 to 167 °C

---

Form field: IC50 (one value per entry).
tested on: HT-29; experiment: MTT cytotoxic assay, colon HT-29 cell line; assay type: cell-based; conditions: Homo sapiens, read-out: (IC50 μM)±SD HT-29
Response body: numeric value in µM, unit text excluded.

| molecule | recorded.result |
| --- | --- |
| COc1ccc(/C=C/C(=O)c2ccc(NC(=O)CSc3nc(-c4ccc(Cl)cc4)cc(-c4ccc([N+](=O)[O-])cc4)n3)cc2)cc1OC [Compound 9n] | 2.1 |
| COc1ccc(-c2cc(-c3ccc([N+](=O)[O-])cc3)nc(SCC(=O)Nc3ccc(C(=O)/C=C/c4ccc(OC)c(OC)c4)cc3)n2)cc1 [Compound 9e] | 7.31 |
| C#Cc1cccc(Nc2ncnc3cc(OCCOC)c(OCCOC)cc23)c1 [Erlotinib, reference compound] | 9.2 |

Give measured IC50 for COc1ccc(-c2cc(-c3ccc(OCCCl)cc3)nc(SCC(=O)Nc3ccc(C(=O)/C=C/c4ccc(OC)c(OC)c4)cc3)n2)cc1 [Compound 9h] (HT-29).
18.8

Give measured IC50 for COc1ccc(-c2cc(-c3ccc(OCCCl)cc3)nc(SCC(=O)Nc3ccc(C(=O)/C=C/c4cc(OC)c(OC)c(OC)c4)cc3)n2)cc1 [Compound 9i] (HT-29).
11.5

Give measured IC50 for COc1ccc(/C=C/C(=O)c2ccc(NC(=O)CSc3nc(-c4ccc(OC)cc4)cc(-c4ccc(OCCCl)cc4)n3)cc2)cc1 [Compound 9g] (HT-29).
10.6

Give measured IC50 for COc1ccc(/C=C/C(=O)c2ccc(NC(=O)CSc3nc(-c4ccc(Cl)cc4)cc(-c4ccc(OCCCl)cc4)n3)cc2)cc1OC [Compound 9q] (HT-29).
6.06

Give measured IC50 for COc1ccc(/C=C/C(=O)c2ccc(NC(=O)CSc3nc(-c4ccc(C)cc4)cc(-c4ccc(Cl)cc4)n3)cc2)cc1OC [Compound 9k] (HT-29).
5.61

Give measured IC50 for COc1ccc(-c2cc(-c3ccc([N+](=O)[O-])cc3)nc(SCC(=O)Nc3ccc(C(=O)/C=C/c4cc(OC)c(OC)c(OC)c4)cc3)n2)cc1 [Compound 9f] (HT-29).
9.41

Give measured IC50 for COc1cc(/C=C/C(=O)c2ccc(NC(=O)CSc3nc(-c4ccc(C)cc4)cc(-c4ccc(Cl)cc4)n3)cc2)cc(OC)c1OC [Compound 9l] (HT-29).
2.37

# credit: paper PMC7144330
